Hey, just so you know, these numbers are from ChEMBL document CHEMBL4725498.

# Species: Sus scrofa
# measurement description: Inhibition of porcine brain tubulin polymerization assessed as reduction in rate and extent of tubulin polymerization at 20 uM by turbidimetric assay
Activity calls are given as the source filed them. The calls are words filed in the database; no cut-off is given here.
Field 'call' accepts label 1 (active), label 0 (inactive)

Q) Call for entry `C[C@]12C[C@H]3O[C@H]3C[C@@H]1CC[C@@H]1[C@@H]2CC[C@]2(C)C(=O)C=C[C@@H]12` :
A) label 1

Q) Call for entry `C[C@]12C[C@H]3O[C@H]3C[C@@H]1C(=O)C[C@@H]1[C@@H]2CC[C@]2(C)C(=O)C=C[C@@H]12` :
A) label 1

Q) Call for entry `C[C@]12C[C@H]3O[C@H]3C[C@@H]1[C@@H](O)C[C@@H]1[C@@H]2CC[C@]2(C)C(=O)C=C[C@@H]12` :
A) label 1

Q) Call for entry `C[C@]12C[C@H]3O[C@H]3C[C@@H]1CC[C@H]1[C@@H]3[C@@H]4O[C@@H]4C(=O)[C@@]3(C)CC[C@@H]12` :
A) label 0

Q) Call for entry Cc1ccc(S(=O)(=O)N2[C@@H]3C[C@@]4(C)[C@@H](CC[C@H]5[C@@H]6[C@@H]7O[C@@H]7C(=O)[C@@]6(C)CC[C@@H]54)C[C@@H]32)cc1 (stereo partly specified) :
A) label 0

Q) Call for entry `C[C@]12CC=CC[C@@H]1CC[C@@H]1[C@@H]2CC[C@]2(C)C(=O)C=C[C@@H]12` :
A) label 1
